- target.system: T1, soluble monomeric human MUC16 (hMUC16.mmh, last five SEA domains, SEQ ID: 1902) (Homo sapiens, UniProt Q8WXI7)
- T1 construct: mmh (myc-myc-hexahistidine)
- T1 sequence (Q8WXI7 with tags, fused parts or gaps): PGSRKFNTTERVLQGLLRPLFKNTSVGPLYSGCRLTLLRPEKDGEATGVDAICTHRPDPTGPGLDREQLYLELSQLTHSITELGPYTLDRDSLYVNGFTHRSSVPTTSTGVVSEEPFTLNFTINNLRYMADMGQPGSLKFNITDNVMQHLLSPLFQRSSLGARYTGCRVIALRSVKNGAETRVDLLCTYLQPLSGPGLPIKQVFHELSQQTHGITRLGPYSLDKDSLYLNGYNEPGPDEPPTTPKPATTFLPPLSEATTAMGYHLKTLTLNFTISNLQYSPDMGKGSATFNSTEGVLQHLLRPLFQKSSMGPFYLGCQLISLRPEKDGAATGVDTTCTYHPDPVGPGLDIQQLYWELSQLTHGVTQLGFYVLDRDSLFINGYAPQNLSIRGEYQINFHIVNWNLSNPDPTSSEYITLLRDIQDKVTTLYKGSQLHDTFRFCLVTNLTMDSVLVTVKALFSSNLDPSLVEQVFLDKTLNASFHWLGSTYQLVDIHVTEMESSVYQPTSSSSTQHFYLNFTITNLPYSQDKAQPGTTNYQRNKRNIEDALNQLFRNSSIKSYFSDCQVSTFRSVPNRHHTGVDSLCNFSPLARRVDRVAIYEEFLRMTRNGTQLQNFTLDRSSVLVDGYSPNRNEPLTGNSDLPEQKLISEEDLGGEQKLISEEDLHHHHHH
- experiment.summary: Surface plasmon resonance (BIACORE) binding to hMUC16 fragment at 25° C.
- recorded.conditions: Human Fc anti-MUC16 antibodies (H1H), 25° C., Table 5B

{"columns": ["molecule", "kd [s⁻¹]"],
 "data": [
  ["H1H8770P: anti-MUC16 antibody, human IgG1 Fc; HCVR/LCVR SEQ ID NOs: 34/42 (antibody, V domains shown) VH: QVQLVESGGGVVQPGRSLRLSCAASGFTFSDHGMHWVRQAPGKGLEWVAVISYHGSNKHYADSVKGRFTISRDNSKNALYLQMNSLRPEDTAMYYCAKDGYDFWNGYSLFDYWGQGTLVTVSS VL: DIQMTQSPSSLSASVGDRVTITCRASQSISNYLNWYQQKPGKAPKLLIYTASNLLSGVPSRFSGSGSGTDFTLTISSLQPEDFATYYCQQSYSTPPITFGQGTKLEIK", 0.000308],
  ["H1H8783P: anti-MUC16 antibody, human IgG1 Fc; HCVR/LCVR SEQ ID NOs: 50/58 (antibody, V domains shown) VH: QVQLVESGGGVVQPGRSLRLSCAASGFTFSDHAMHWVRQAPGKGLEWVAVISYHGTDKQYGDSVKGRFTISRDNSKNALYLQMNSLRPEDTAMYYCAKDGYDFWNAYSLFDYWGQGTLVTVSS VL: DIQMTQSPSSLSASVGDRVTITCRASQSISNYLNWYQQKPGKAPKLLIYTASSLLSGVPSRFSGSGSGTDFTLTISSLQPEDFATYYCQQSYSTPPITFGQGTRLEIK", 0.000107],
  ["H1H8808P: anti-MUC16 antibody, human IgG1 Fc; HCVR/LCVR SEQ ID NOs: 130/138 (antibody, V domains shown) VH: QVQLVESGGGVVQPGRSLRLSCVASGFTFSNYGIHWVRQAPGKGLEWVAVISDDGSFKFYADSVKGRFTISRDNSKNTLYLQMNSLRVEDSAVYHCAKWQHNWNDGGFDYWGQGTLVTVSS VL: EIVLTQSPDTLSLSPGERATLSCRASQSLSSNYLAWYRQKPGQAPRLLIYGISSRATGIPDRFSGSGSGTDFTLTISRLEPEDFAVYYCQQYGSSPWTFGQGTKVEIK", 0.000216],
  ["H1H8755P: anti-MUC16 antibody, human IgG1 Fc; HCVR/LCVR SEQ ID NOs: 2/10 (antibody, V domains shown) VH: EVQLVESGGGLVQPGRSLRLSCAASGFTFNDYAMHWVRQSPGKGLEWVSGIDWNGGSIDYADSVKGRFTISRDTAKNSLYLQMNSLKVEDTALYYCAKDIGHWNYIGGMDVWGQGTTVTVSS VL: DIQMTQSPSSLSASVGDRVTITCRASQSINIYLNWYQQKPGKAPKFLIYAASSLQTGVPSRFSGSGSGTDFTLTISSLEPEDFATYYCQHSYSTPPITFGQGTRLEIK", 0.000149]
]}
